pIC50 for assorted molecules
System: Human Factor D (Homo sapiens (Human), UniProt P00746)
Sequence (P00746 26-253): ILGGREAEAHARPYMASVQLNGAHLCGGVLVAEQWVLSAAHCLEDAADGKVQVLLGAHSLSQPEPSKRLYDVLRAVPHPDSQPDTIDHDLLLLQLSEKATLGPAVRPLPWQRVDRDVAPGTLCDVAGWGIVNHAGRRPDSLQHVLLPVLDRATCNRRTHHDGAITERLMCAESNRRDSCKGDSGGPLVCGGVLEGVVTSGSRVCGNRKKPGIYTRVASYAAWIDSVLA
Method summary: Human Factor D Assay
Assay type: biochemical
Measurement context: Table 5; Human Factor D 80 nM, substrate Z-L-Lys-SBzl; read-out: IC50 (Stars)
Protocol: Human Factor D (purified from human serum, Complement Technology, Inc.) at 80 nM final concentration is incubated with test compound at various concentrations for 5 min at room temperature in 50 mM Tris, 1M NaCl, pH 7.5. […] Absorbance at 405 nm (A405) is recorded at 30 second intervals for 30 min using a microplate spectrophotometer. IC50 values are calculated by nonlinear regression of Complement Factor D reaction rates as a function of test compound concentration.
pIC50: −log10 of the molar value.

Molecule	pIC50
CC(=O)c1ccn(CC(=O)N2C[C@H](F)C[C@H]2C(=O)Nc2cccc(Br)n2)n1 [Compound T-14]	> 6.00
CC(=O)c1nn(CC(=O)N2[C@H]3C[C@@]3(C)C[C@H]2C(=O)Nc2nc(Br)ccc2C)c2c(S(C)(=N)=O)cccc12 (stereo partly drawn) [Compound T-36]	< 5.00
CC(=O)c1nn(CC(=O)N2C[C@H]3C[C@H]3[C@H]2C(=O)Nc2nc(Br)ccc2C2CC2)c2cc(C)sc12 [Compound T-10]	> 6.00
CC(=O)c1nn(CC(=O)N2[C@H](C(=O)Nc3nc(Br)ccc3C)C[C@@]3(CNC(=O)C4CCCC4(F)F)C[C@@H]23)c2c(C)cccc12 (stereo partly drawn) [Compound T-43]	> 6.00
CC(=O)c1nn(CC(=O)N2[C@H](C(=O)Nc3cccc(Br)n3)C[C@@]3(C)C[C@@H]23)c2cc(S(C)(=N)=O)ccc12 (stereo partly drawn) [Compound T-6]	> 6.00
CC(=O)c1nn(CC(=O)N2C[C@H](F)C[C@H]2C(=O)Nc2cccc(Br)n2)c2ccc(S(C)(=N)=O)cc12 (stereo partly drawn) [Compound T-3]	> 6.00
